Test system: Direct Seeded Rice and weed species
experiment: Postemergence herbicidal activity in direct seeded rice, visual rating after 20-22 days and probit GR20/GR50/GR80/GR90 (Table 14)
Type: in vivo
experimental context: post-emergence, 504 h; LEFCH (Chinese sprangletop, Leptochloa chinensis); 70 g ai/ha; postemergence; read-out: Visual Growth Reduction (%) 21 Days After Application LEFCH
measure name: pest or weed control at 70 g/ha

>>> measurement("Nc1cc(-c2cc3c(cc2F)OC(F)(F)O3)nc(C(=O)O)c1Cl [Compound 42]")
"95 to 100%"
>>> measurement("Nc1c(F)c(-c2ccc3c(c2F)OC(F)(F)O3)nc(C(=O)O)c1Cl [Compound 11]")
"95 to 100%"
>>> measurement("COC(=O)c1nc(-c2ccc3c(c2F)OC(F)(F)O3)cc(N)c1Cl [Compound 37]")
"45 to 59%"

###

Parameter GR20 HORVS: see the listing below.
Test system: Wheat and Barley and weed species
experiment: Post-Emergent Test III: postemergent herbicidal activity in wheat and barley, visual rating after 21 d and probit GR20/GR50/GR80/GR90 (Tables 9-13)
Type: in vivo
experimental context: HORVS barley, spring (crop); growth reduction of 20%; probit analysis
measure name: GR20 HORVS

>>> measurement("Nc1c(F)c(-c2cc3c(cc2F)OC(F)(F)O3)nc(C(=O)O)c1Cl [Compound 13]")
"2 g ai/ha"
>>> measurement("Nc1c(F)c(-c2ccc3c(c2)OC(F)(F)O3)nc(C(=O)O)c1Cl [Compound 7]")
"2 g ai/ha"
>>> measurement("COC(=O)c1nc(-c2c(F)cc3c(c2F)OC(F)(F)O3)cc(N)c1Cl [Compound 46]")
"8 g ai/ha"
>>> measurement("COC(=O)c1nc(-c2cc3c(cc2F)OC(F)(F)O3)c(F)c(N)c1Cl [Compound 9]")
"3 g ai/ha"
>>> measurement("COC(=O)c1nc(-c2ccc3c(c2F)OC(F)(F)O3)c(F)c(N)c1Cl [Compound 10]")
"11 g ai/ha"
>>> measurement("COC(=O)c1nc(-c2cc3c(cc2F)OC(F)(F)O3)cc(N)c1Cl [Compound 32]")
"3 g ai/ha"
>>> measurement("COC(=O)c1nc(-c2ccc3c(c2)OC(C)(C)O3)c(F)c(N)c1Cl [Compound 8]")
"7 g ai/ha"
>>> measurement("Nc1cc(-c2cc3c(cc2F)OC(F)(F)O3)nc(C(=O)O)c1Cl [Compound 42]")
"0.50 g ai/ha"
>>> measurement("Nc1c(F)c(-c2ccc(Cl)c3c2OC(F)(F)O3)nc(C(=O)O)c1Cl [Compound 82]")
"7 g ai/ha"
>>> measurement("COC(=O)c1nc(-c2ccc(Br)c3c2OC(F)(F)O3)c(F)c(N)c1Cl [Compound 78]")
"13 g ai/ha"
>>> measurement("Nc1c(F)c(-c2ccc3c(c2F)OC(F)(F)O3)nc(C(=O)O)c1Cl [Compound 11]")
"3 g ai/ha"

###

Tested on: Key Broadleaf Weed and Crop Species
experiment: Post-Emergent Test II: postemergent herbicidal activity, visual rating after 14 d (Table 7)
Assay type: in vivo
experimental context: post-emergence, 336 h, redroot pigweed (Amaranthus retroflexus), 35 g ai/ha, read-out: Visual Growth Reduction (%) 14 Days After Application AMARE
measure name: pest or weed control at 35 g/ha

>>> measurement("COC(=O)c1nc(-c2cc3c(cc2Cl)OC(F)(F)O3)cc(N)c1Cl [Compound 40]")
"0 to 29%"
>>> measurement("Nc1c(F)c(-c2cc3c(cc2F)OC(F)(F)O3)nc(C(=O)O)c1Cl [Compound 13]")
"0 to 29%"
>>> measurement("COC(=O)c1nc(-c2ccc3c(c2)OC(C)(C)O3)nc(N)c1Cl [Compound 55]")
"45 to 59%"
>>> measurement("COC(=O)c1nc(-c2cccc3c2OC(F)(F)O3)c(F)c(N)c1Cl [Compound 73]")
"95 to 100%"
>>> measurement("COC(=O)c1nc(-c2cc3c(cc2F)OCO3)cc(N)c1Cl [Compound 45]")
"95 to 100%"
